# Tested on: CCRIS mutagenicity, Ames/micronucleus/aberration tests
# experimental-protocol: CCRIS mutagenicity studies
# condition-details: Test System: AMES SALMONELLA TYPHIMURIUM; Strain/Indicator: TA1537; Metabolic Activation: HAMSTER, LIVER, S-9, AROCLOR 1254 (10 OR 30%); Method: PREINCUBATION
Active and inactive are the calls of the source. The rule behind the calls is not given here.
readout-label: mutagenic call

Reference set (4 entries):
| structure-as-smiles | readout-label | reported-result |
| --- | --- | --- |
| CC/C=C/C#N | mutagenic call | inactive; negative |
| [O-][Br+2]([O-])O | mutagenic call | inactive; negative |
| O=C(O)CN(CC(=O)O)CC(=O)O | mutagenic call | inactive; negative |
| c1ccc2[nH]cnc2c1 | mutagenic call | inactive; negative |

Next compound, please.
Provide measured mutagenic call value, entry: "NC(=O)NNC(N)=O" inactive; negative

Data provenance: PubChem BioAssay AID1259407
